# System: human gastric cancer cells SNU-16
# test_name: Tumor cell proliferation, CCK-8 kit
# Assay type: cell-based
# protocol_conditions: SNU-16 cells, 72 hours
Listed here: items and their measured IC50.
Field: numeric (nM). Do not append units.

>>> print(df.to_string())
                               smiles_entry  observed_result
0  Nc1c(C(=O)c2cc3ccccc3[nH]2)cnn1-c1ccc2[nH]c(C3CC3)nc2c1                4
1  Nc1c(C(=O)c2cc3ccc(F)cc3[nH]2)cnn1-c1ccc2[nH]c(C3CC3)nc2c1                5

Here is the next item to consider.
**Query** Identify the reported IC50 for the following entry. `CN1CC=C(c2ccc3cc(C(=O)c4cnn(-c5ccc6[nH]c(C7CC7)nc6c5)c4N)[nH]c3c2)CC1`
**Result** 5.6

----------
# target_system: FGFR4 (Homo sapiens (Human), UniProt P22455)
# Sequence (P22455 22-802): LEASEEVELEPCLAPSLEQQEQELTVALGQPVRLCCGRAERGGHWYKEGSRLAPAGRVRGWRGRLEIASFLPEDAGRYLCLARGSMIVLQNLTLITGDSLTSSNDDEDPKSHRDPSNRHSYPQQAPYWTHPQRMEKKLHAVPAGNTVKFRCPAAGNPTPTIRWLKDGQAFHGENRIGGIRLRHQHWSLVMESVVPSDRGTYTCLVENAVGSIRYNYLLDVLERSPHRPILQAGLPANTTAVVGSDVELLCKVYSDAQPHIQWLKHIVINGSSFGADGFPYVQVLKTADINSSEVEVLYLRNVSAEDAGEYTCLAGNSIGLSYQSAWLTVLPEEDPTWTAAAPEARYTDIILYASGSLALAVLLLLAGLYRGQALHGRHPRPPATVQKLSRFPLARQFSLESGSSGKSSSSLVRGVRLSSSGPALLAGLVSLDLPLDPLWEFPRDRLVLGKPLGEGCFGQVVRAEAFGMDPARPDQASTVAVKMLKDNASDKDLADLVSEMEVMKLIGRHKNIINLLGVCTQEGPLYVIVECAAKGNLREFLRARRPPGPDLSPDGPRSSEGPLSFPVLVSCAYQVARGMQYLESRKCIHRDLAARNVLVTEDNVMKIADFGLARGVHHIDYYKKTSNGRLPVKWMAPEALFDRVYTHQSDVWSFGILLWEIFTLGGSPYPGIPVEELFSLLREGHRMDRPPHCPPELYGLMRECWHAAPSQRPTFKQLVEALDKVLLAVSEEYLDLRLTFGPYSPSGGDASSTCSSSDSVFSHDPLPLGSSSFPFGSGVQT
# protocol_conditions: read-out: IC50(nM) FGFR4; recombinant human FGFR4, ATP at Km
measured_quantity: IC50

**Query** Dear colleague, please send me the reported IC50 for COC(=O)c1nc2cc(-n3ncc(C(=O)c4cc5ccccc5[nH]4)c3N)ccc2[nH]1 [Example 7] when you can.
**Result** > 10000 nM

----------
# test_name: Pharmacokinetic tests on mice, intragastric, plasma LC/MS/MS
# Format: in vivo
# protocol_conditions: mouse, plasma, po, ICR mice, 100 mg/kg, read-out: Plasma concentration Cmax
measured_quantity: Cmax

**Query** Name the recorded Cmax of the item Nc1c(C(=O)c2cc3ccccc3[nH]2)cnn1-c1ccc2[nH]c(C3CC3)nc2c1 [Example 1] in your answer.
**Result** 17400 ng/mL

----------
# test_name: Pharmacokinetic tests on rats, intragastric, plasma LC/MS/MS
# Type: in vivo
# protocol_conditions: male, rat, plasma, po, SD rats, 5 mg/kg, read-out: Plasma concentration Cmax
measured_quantity: Cmax (ng/mL)
Form entry: value (ng/mL) — number only.

**Query** Given `N#Cc1ccc2cc(C(=O)c3cnn(-c4ccc5[nH]c(C6CC6)nc5c4)c3N)[nH]c2c1` , respond with its Cmax.
**Result** 1040

----------
# Tested on: small cell lung cancer cells NCI-H1581
# test_name: Tumor cell proliferation, CCK-8 kit
# Type: cell-based
# protocol_conditions: Homo sapiens, 72 hours
# if measured IC50 < 60 nM: rule met  # else: rule not met

>>> print(df.to_string())
                               smiles_entry  class_assignment
0  Nc1c(C(=O)c2cc3ccccc3[nH]2)cnn1-c1ccc2[nH]c(C3CC3)nc2c1          rule met
1  Nc1c(C(=O)c2cc3cc(F)ccc3[nH]2)cnn1-c1ccc2[nH]c(C3CC3)nc2c1      rule not met
2  Nc1c(C(=O)c2cc3ccc(F)cc3[nH]2)cnn1-c1ccc2[nH]c(C3CC3)nc2c1      rule not met
3  CCn1cc(-c2ccc3cc(C(=O)c4cnn(-c5ccc6[nH]c(C7CC7)nc6c5)c4N)[nH]c3c2)cn1          rule met

**Query** Lab log: compare recorded IC50 with 60 nM; is it strictly lower for `CN1CC=C(c2ccc3cc(C(=O)c4cnn(-c5ccc6[nH]c(C7CC7)nc6c5)c4N)[nH]c3c2)CC1` ?
**Result** rule met

----------
# test_name: Pharmacokinetic tests on rats, intragastric, plasma LC/MS/MS
# Assay type: in vivo
# protocol_conditions: male, rat, plasma, po, SD rats, 5 mg/kg, read-out: Curve area AUC0-∞
measured_quantity: AUC(0-inf) (ng·h/mL)
API: value field is a number in ng·h/mL; no unit string.

**Query** Note AUC(0-inf) for the compound shown: `N#Cc1ccc2cc(C(=O)c3cnn(-c4ccc5[nH]c(C6CC6)nc5c4)c3N)[nH]c2c1`
**Result** 10300

----------
# test_name: Pharmacokinetic tests on rats, intragastric, plasma LC/MS/MS
# Format: in vivo
# protocol_conditions: male, rat, plasma, po, SD rats, 5 mg/kg, read-out: Half-life period T½ (converted)
measured_quantity: half-life

**Query** Please give the documented half-life of `N#Cc1ccc2cc(C(=O)c3cnn(-c4ccc5[nH]c(C6CC6)nc5c4)c3N)[nH]c2c1`
**Result** 6.6 h

----------
# target_system: FGFR3 (Homo sapiens (Human))
# Sequence (P22607 23-806): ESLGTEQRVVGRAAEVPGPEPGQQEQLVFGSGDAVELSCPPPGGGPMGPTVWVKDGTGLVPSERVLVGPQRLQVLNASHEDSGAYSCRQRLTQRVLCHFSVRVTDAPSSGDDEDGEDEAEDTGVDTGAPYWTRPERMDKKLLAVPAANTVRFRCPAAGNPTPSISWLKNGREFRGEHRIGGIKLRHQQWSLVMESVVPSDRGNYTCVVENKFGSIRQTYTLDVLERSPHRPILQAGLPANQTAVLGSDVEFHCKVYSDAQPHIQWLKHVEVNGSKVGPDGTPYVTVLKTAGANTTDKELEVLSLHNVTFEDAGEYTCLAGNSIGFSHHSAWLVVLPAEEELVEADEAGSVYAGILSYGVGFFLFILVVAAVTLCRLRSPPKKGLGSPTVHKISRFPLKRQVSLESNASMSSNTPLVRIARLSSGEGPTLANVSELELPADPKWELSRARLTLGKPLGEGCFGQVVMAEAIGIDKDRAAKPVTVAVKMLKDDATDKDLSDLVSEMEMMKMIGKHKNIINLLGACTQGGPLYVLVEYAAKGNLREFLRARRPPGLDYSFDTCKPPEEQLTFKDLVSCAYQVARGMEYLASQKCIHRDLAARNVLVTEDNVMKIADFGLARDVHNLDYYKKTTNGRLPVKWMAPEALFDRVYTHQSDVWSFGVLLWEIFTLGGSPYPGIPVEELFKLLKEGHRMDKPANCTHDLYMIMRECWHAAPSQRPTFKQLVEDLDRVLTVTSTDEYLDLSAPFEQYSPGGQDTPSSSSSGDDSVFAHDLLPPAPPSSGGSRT
# test_name: FGFR kinase activity, HTRF KinEASE-TK (TF-FRET)
# Assay type: biochemical
# protocol_conditions: recombinant human FGFR3, ATP at Km
measured_quantity: IC50

**Query** Give recorded IC50. `COC(=O)c1nc2cc(-n3ncc(C(=O)c4cc5ccccc5[nH]4)c3N)ccc2[nH]1`
**Result** > 100 nM

Cited source for all entries: patent US10214515B2
